- TESTED TARGET: Luciferin 4-monooxygenase (Photinus pyralis) (UniProt P08659)
- Sequence (P08659 whole entry, looked up): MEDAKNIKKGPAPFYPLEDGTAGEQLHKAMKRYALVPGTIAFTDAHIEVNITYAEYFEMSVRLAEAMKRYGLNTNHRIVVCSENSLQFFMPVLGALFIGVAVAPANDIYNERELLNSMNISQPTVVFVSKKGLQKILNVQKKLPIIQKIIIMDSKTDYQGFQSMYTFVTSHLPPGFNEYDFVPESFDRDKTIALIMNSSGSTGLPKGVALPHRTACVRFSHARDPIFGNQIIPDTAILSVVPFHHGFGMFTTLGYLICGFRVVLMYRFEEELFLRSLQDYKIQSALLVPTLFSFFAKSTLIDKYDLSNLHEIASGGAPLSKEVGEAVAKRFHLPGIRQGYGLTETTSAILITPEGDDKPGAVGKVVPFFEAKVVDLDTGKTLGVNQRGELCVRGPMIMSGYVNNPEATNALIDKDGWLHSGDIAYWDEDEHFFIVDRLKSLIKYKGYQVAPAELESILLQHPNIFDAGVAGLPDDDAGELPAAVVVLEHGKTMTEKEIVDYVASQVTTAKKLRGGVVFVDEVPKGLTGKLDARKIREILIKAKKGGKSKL
- ASSAY TEXT: firefly luciferase enzyme inhibitors, primary screen, biochemical, luminescence, purified enzyme, 2006 set (AID 1141);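 further: cell-free assay with purified firefly luciferase at 100 ng per well in PBS; test concentration not given here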
- EXPERIMENTAL CONDITIONS: SteadyGlo luminescence, 30 min, higher = more signal, called active from +8 up or from −8 down
Given measured z-score, output 1 if it is greater than or equal to -0.6 and 0 if not.

Can `CC[C@@H](O[Si](C#C[Si](C(C)C)(C(C)C)C(C)C)(C(C)C)C(C)C)c1cn([C@H](C)c2ccccc2)nn1` be said to have z-score at or above -0.6?
1

Can `Cc1ccc(S[C@]2(C(=O)NC(C)C)CC(=O)N(Cc3ccccc3)[C@@H]2c2ccc(CO)cc2I)cc1` be said to have z-score at or above -0.6?
0

Can `COC(=O)[C@@]1(Cc2ccccc2)[C@H]2c3cc(C(=O)N(C)C)n(Cc4ccc(Cl)c(C(F)(F)F)c4)c3C[C@H]2CN1C(=O)c1ccccc1` be said to have z-score at or above -0.6?
1

Can `COc1ccc([Si](C)(C)[C@@H]2[C@@H](CC(=O)N(CCO)Cc3ccccc3)O[C@]3(C(=O)N(Cc4cccc(I)c4)c4ccccc43)[C@H]2C)cc1` be said to have z-score at or above -0.6?
1

Can `C=C(C(=O)CC[C@@H](OC(=O)c1ccccc1-c1ccccc1C(=O)O)c1ccc(OCCO)cc1)C(C)C` be said to have z-score at or above -0.6?
0

Can C=CCC(OC(C)=O)[C@@H]1[C@@H](N(Cc2cccc3ccccc23)C(=O)c2ccc(C)cc2)c2cc(OCCCO)ccc2N1C(=O)Cc1ccc2ccccc2c1 (some centres not stated) be said to have z-score at or above -0.6?
0

Can `CC[C@@H](O[Si](C#C[Si](C(C)C)(C(C)C)C(C)C)(C(C)C)C(C)C)c1cn(Cc2cccc(Cl)c2)nn1` be said to have z-score at or above -0.6?
1

----------
- System: Lefty1
- ASSAY TEXT: Lefty1 binders on small-molecule microarrays, primary screen, biochemical, small-molecule microarray, 635/667 nm fluorescence (AID 1139)
- EXPERIMENTAL CONDITIONS: small-molecule microarray binding, fluorescence 635/667; higher = more signal
EXPERIMENTAL READOUT: composite z-score

Look up and report measured composite z-score for this entry: `CC[C@@H](O[Si](C#C[Si](C(C)C)(C(C)C)C(C)C)(C(C)C)C(C)C)c1cn([C@H](CO)Cc2ccccc2)nn1`
1.21

Look up and report measured composite z-score for this entry: `O=C1O[C@H](c2ccccc2)[C@H](c2ccccc2)N2[C@H]1[C@@H](C(=O)N1CCCCCCC1)[C@]1(C(=O)Nc3ccc(C#CCCO)cc31)[C@H]2c1ccc(O)cc1`
1.85

Look up and report measured composite z-score for this entry: `COCCOC(=O)N1C(=O)[C@@]2(c3cc(C#CCNC(N)=O)ccc31)[C@H](C(=O)N1CCN(c3ncccn3)CC1)[C@H]1C(=O)O[C@H](c3ccccc3)[C@H](c3ccccc3)N1[C@@H]2c1ccc(O)cc1`
-1.19

----------
- TESTED TARGET: Torsin-1A (Homo sapiens) (UniProt O14656)
- Sequence (O14656 whole entry, looked up): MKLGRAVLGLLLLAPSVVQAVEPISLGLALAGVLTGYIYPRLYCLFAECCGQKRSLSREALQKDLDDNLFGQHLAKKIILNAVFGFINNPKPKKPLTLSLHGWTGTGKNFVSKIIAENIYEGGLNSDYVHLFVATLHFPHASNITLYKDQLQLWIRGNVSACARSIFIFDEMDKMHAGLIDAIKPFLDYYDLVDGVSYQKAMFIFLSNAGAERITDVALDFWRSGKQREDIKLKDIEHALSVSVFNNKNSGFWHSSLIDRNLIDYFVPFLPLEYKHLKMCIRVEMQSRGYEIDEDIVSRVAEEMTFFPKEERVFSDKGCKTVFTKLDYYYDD
- ASSAY TEXT: torsin A binders from cell lysate, primary screen, small-molecule microarray, wild-type, 635/667 nm (AID 1149)
- EXPERIMENTAL CONDITIONS: COS7 hTOR1A-WT lysate, 635 nm fluorescence, higher = more signal
Give composite z-score for every item shown.
Answer as a number with no unit attached.

Look up and report measured composite z-score for this entry: `C=CCNC(=O)[C@H]1[C@@H]2C(=O)O[C@@H](c3ccccc3)[C@@H](c3ccccc3)N2[C@@H](c2ccc(OCCO)cc2)[C@]12C(=O)N(C(=O)OCCOC)c1ccc(C#CCNC(N)=O)cc12`
0.668

Look up and report measured composite z-score for this entry: `Cc1c(NC(=O)/C(C#N)=C/C=C/c2ccc([N+](=O)[O-])cc2)c(=O)n(-c2ccccc2)n1C`
0.321

Look up and report measured composite z-score for this entry: CC1CC/C=C\[C@H]2OC34C=CCN(C(C)C)C(=O)[C@H]3N(C(C)CO)C(=O)[C@@H]4C2C(=O)O1 (some centres undefined)
0.0269

Look up and report measured composite z-score for this entry: `C=C(CCCC)C(=O)CC[C@H](OC(=O)c1ccccc1-c1ccccc1C(=O)O)c1cccc(OCCO)c1`
0.259
